# measurement_target: Monoamine transporters; serotonin & dopamine (Rattus norvegicus) (UniProt P31652+P23977)
# Sequence (P23977 whole entry, looked up): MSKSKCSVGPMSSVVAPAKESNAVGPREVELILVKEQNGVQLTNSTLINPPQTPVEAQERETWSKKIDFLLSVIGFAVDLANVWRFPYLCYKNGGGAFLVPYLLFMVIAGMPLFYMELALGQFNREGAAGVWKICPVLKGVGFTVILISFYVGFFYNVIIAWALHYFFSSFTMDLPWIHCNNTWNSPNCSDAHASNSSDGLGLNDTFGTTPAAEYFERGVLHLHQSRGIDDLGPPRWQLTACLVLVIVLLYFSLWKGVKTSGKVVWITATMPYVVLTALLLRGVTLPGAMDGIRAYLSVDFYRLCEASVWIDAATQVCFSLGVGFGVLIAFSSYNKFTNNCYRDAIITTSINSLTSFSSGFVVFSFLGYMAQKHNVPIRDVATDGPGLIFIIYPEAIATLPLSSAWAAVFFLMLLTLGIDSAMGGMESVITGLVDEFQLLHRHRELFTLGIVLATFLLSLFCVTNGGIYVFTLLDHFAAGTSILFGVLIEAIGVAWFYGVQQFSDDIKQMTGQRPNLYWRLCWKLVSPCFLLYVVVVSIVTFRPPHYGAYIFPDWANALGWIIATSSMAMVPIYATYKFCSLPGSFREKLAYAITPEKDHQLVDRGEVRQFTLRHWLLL
# Sequence (P31652 whole entry, looked up): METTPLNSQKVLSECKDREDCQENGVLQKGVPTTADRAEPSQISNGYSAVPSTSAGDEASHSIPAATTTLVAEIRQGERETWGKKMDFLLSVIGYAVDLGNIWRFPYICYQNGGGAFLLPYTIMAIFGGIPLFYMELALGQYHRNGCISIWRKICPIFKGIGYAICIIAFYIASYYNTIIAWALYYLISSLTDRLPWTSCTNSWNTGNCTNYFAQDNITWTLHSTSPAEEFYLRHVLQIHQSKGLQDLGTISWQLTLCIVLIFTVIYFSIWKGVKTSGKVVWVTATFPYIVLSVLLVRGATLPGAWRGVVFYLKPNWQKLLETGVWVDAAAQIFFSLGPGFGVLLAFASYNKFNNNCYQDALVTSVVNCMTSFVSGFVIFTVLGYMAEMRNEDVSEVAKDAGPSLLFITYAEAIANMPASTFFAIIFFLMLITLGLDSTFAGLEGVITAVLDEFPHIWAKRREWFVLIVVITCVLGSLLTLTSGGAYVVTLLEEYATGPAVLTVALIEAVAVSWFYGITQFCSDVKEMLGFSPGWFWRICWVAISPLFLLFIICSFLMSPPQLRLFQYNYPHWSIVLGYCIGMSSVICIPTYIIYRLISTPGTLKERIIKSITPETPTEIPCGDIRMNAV
# test: Selectivity for Dopamine and Serotonin transporters
# Type: protein assay
quantity_name: Selectivity

COC(=O)[C@@H]1C2CCC(C[C@@H]1c1ccc(I)cc1)N2CC(=O)N(C)C (some centres not stated) | 0.524
COC(=O)C1C(c2ccc(I)cc2)CC2CCC1N2CCCO (configuration not stated) | 0.463
COC(=O)C1C(c2ccc(I)cc2)CC2CCC1N2CCCOS(C)(=O)=O (configuration not stated) | 0.477
CC(C)OC(=O)C1C(c2ccc(I)cc2)CC2CCC1N2CCCF (configuration not stated) | 40.6
COC(=O)[C@@H]1C2CCC(C[C@@H]1c1ccc(I)cc1)N2CCCN1C(=O)c2ccccc2C1=O (some centres not stated) | 0.065

For record COC(=O)CN1C2CCC1C(C(=O)OC)C(c1ccc(I)cc1)C2 (configuration not stated) the listed Selectivity is 0.068
